Cited source for all entries: paper PMC6271041

value_type: melting point

In [3]: df
Out[3]:
                                   compound     value_type         result
0  Cc1cc(C)cc(Cc2cc(=O)[nH]c(SCc3ccc([N+](=O)[O-])cc3)n2)c1  melting point  218 to 220 °C
1  O=c1cc(Cc2cc(F)cc(F)c2)nc(SCCc2ccc([N+](=O)[O-])cc2)[nH]1  melting point  220 to 222 °C
2  O=c1[nH]c(SCCc2ccc([N+](=O)[O-])cc2)nc(Cc2ccccc2)c1I  melting point  209 to 212 °C
3  COC(=O)c1ccc(CSc2nc(Cc3cc(C)cc(C)c3)cc(=O)[nH]2)cc1  melting point  221 to 224 °C
4  Cc1cc(C)cc(Cc2nc(SCc3ccc([N+](=O)[O-])cc3)[nH]c(=O)c2I)c1  melting point  224 to 228 °C
5   O=c1cc(Cc2ccccc2)nc(SCCCOc2ccccc2)[nH]1  melting point    89 to 91 °C
6  O=c1cc(Cc2ccccc2)nc(SCCc2ccc([N+](=O)[O-])cc2)[nH]1  melting point  200 to 204 °C
7  N#Cc1ccc(CSc2nc(Cc3cc(F)cc(F)c3)c(I)c(=O)[nH]2)cc1  melting point  216 to 219 °C

----------
value_type: melting point

                                    molecule         result
 0  O=c1cc(Cc2cc(F)cc(F)c2)nc(SCCOc2ccc([N+](=O)[O-])cc2)[nH]1 [7r]  210 to 212 °C
 1  N#Cc1ccc(CSc2nc(Cc3cc(F)cc(F)c3)cc(=O)[nH]2)cc1 [7f]  205 to 208 °C
 2  O=c1[nH]c(SCc2ccc([N+](=O)[O-])cc2)nc(Cc2ccccc2)c1I [8a]  207 to 210 °C
 3  Cc1cc(C)cc(Cc2nc(SCOCc3ccccc3)[nH]c(=O)c2I)c1 [8w]  200 to 202 °C
 4  N#Cc1ccc(CSc2nc(Cc3ccccc3)c(I)c(=O)[nH]2)cc1 [8d]  223 to 226 °C
 5  Cc1cc(C)cc(Cc2cc(=O)[nH]c(SCc3ccc(C#N)cc3)n2)c1 [7e]  193 to 196 °C
 6  CC(=O)c1ccc(CSc2nc(Cc3ccccc3)cc(=O)[nH]2)cc1 [7g, 2-(4-Acetylbenzylthio)-6-benzyluracil]  204 to 205 °C
 7  O=c1[nH]c(SCCc2ccc([N+](=O)[O-])cc2)nc(Cc2cc(F)cc(F)c2)c1I [8o]  220 to 221 °C
 8  CC(=O)c1ccc(CSc2nc(Cc3cc(C)cc(C)c3)c(I)c(=O)[nH]2)cc1 [8h]  201 to 203 °C
 9  Cc1cc(C)cc(Cc2cc(=O)[nH]c(SCOCc3ccccc3)n2)c1 [7w]  134 to 136 °C
10  COC(=O)c1ccc(CSc2nc(Cc3ccccc3)c(I)c(=O)[nH]2)cc1 [8j]  214 to 216 °C
11  Cc1cc(C)cc(Cc2cc(=O)[nH]c(SCCCOc3ccccc3)n2)c1 [7t]  100 to 102 °C
12  O=c1cc(Cc2ccccc2)nc(SCCOc2ccc([N+](=O)[O-])cc2)[nH]1 [7p]  212 to 213 °C
13  CC(=O)c1ccc(CSc2nc(Cc3ccccc3)c(I)c(=O)[nH]2)cc1 [8g]  219 to 220 °C
14  Cc1cc(C)cc(Cc2cc(=O)[nH]c(SCCOc3ccc([N+](=O)[O-])cc3)n2)c1 [7q]  210 to 214 °C
15  O=c1cc(Cc2ccccc2)nc(SCOCc2ccccc2)[nH]1 [7v, 2-(Benzyloxymethylthio)-6-benzyluracil]  118 to 120 °C
16  O=c1[nH]c(SCc2ccc([N+](=O)[O-])cc2)nc(Cc2cc(F)cc(F)c2)c1I [8c]  203 to 206 °C
17  CC(=O)c1ccc(CSc2nc(Cc3cc(C)cc(C)c3)cc(=O)[nH]2)cc1 [7h]  195 to 197 °C

----------
Items are presented alongside their recorded melting point.
value_type: melting point

                                   compound         result
0  O=c1[nH]c(SCCOc2ccc([N+](=O)[O-])cc2)nc(Cc2ccccc2)c1I  204 to 205 °C
1  CC(=O)c1ccc(CSc2nc(Cc3cc(F)cc(F)c3)cc(=O)[nH]2)cc1  251 to 254 °C
2  COC(=O)c1ccc(CSc2nc(Cc3ccccc3)cc(=O)[nH]2)cc1  214 to 217 °C
3  O=c1cc(Cc2ccccc2)nc(SCc2ccc([N+](=O)[O-])cc2)[nH]1  192 to 194 °C
4  N#Cc1ccc(CSc2nc(Cc3ccccc3)cc(=O)[nH]2)cc1  190 to 193 °C

----------
Items are presented alongside their recorded melting point.
value_type: melting point

>>> print(df.to_string())
                                   compound         result
0  Cc1cc(C)cc(Cc2nc(SCCc3ccc([N+](=O)[O-])cc3)[nH]c(=O)c2I)c1  220 to 221 °C
1  COC(=O)c1ccc(CSc2nc(Cc3cc(F)cc(F)c3)cc(=O)[nH]2)cc1  279 to 280 °C
2   O=c1[nH]c(SCOCc2ccccc2)nc(Cc2ccccc2)c1I  133 to 135 °C
3  O=c1[nH]c(SCCCOc2ccccc2)nc(Cc2cc(F)cc(F)c2)c1I  156 to 158 °C
4  Cc1cc(C)cc(Cc2nc(SCCCOc3ccccc3)[nH]c(=O)c2I)c1  165 to 167 °C

----------
Items are presented alongside their recorded pEC50.
tested on: HIV-1SF33; test: Inhibitory activity on HIV-1SF33 infection in TZM-bl cells (p24 ELISA); format: cell-based; conditions: Human immunodeficiency virus 1, 168 h, read-out: EC50 /SF33, concentration inhibiting 50% viral replication, HIV-1SF33 infection in TZM-bl cell line, 7 days
pEC50: −log10 of the molar value.
value_type: pEC50

>>> df
                                   compound  test_system  value_type  recorded_number
0  CC(=O)c1ccc(CSc2nc(Cc3cc(C)cc(C)c3)c(I)c(=O)[nH]2)cc1 [8h]    HIV-1SF33       pEC50             5.97
1  Cc1cc(C)cc(Cc2nc(SCCOc3ccc([N+](=O)[O-])cc3)[nH]c(=O)c2I)c1 [8q]    HIV-1SF33       pEC50             5.03
2  Cc1cc(C)cc(Cc2nc(SCCc3ccc([N+](=O)[O-])cc3)[nH]c(=O)c2I)c1 [8n]    HIV-1SF33       pEC50             5.42
3  O=c1[nH]c(SCCOc2ccc([N+](=O)[O-])cc2)nc(Cc2cc(F)cc(F)c2)c1I [8r]    HIV-1SF33       pEC50             5.39
4  Cc1cc(C)cc(Cc2cc(=O)[nH]c(SCCOc3ccc([N+](=O)[O-])cc3)n2)c1 [7q]    HIV-1SF33       pEC50             5.29
5  Cc1ccnc2c1NC(=O)c1cccnc1N2C1CC1 [nevirapine, reference compound]    HIV-1SF33       pEC50             6.72
6  Cc1cc(C)cc(Cc2cc(=O)[nH]c(SCCc3ccc([N+](=O)[O-])cc3)n2)c1 [7n]    HIV-1SF33       pEC50             5.21
